Molecular target: OsSMF1 (Oryza sativa, UniProt Q6ZLB0 1-436)
Sequence: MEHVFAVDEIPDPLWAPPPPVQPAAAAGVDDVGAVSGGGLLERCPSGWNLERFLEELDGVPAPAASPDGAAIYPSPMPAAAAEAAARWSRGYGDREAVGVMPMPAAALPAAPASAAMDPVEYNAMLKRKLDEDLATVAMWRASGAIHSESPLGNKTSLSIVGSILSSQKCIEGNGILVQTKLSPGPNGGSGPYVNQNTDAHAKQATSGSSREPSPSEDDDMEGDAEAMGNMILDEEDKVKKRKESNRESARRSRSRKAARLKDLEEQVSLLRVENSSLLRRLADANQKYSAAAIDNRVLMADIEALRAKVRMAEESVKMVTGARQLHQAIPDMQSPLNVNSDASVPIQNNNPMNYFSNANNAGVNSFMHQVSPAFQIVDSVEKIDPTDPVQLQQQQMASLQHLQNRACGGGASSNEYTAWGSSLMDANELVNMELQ
Assay: protein-binding microarray (RPBM); PBS, 2% BSA, 51.3 ng/ul salmon testes DNA, 50 uM zinc acetate, 200 nM TF, 25 C, 1 h; high values mean tight binding
Conditions: protein: recombinant; tags: N-terminal polyhistidine and DsRed monomer fusion (pET32a); chain copies: 2; label: CyDye5-dUTP incorporated in the synthesized complementary strand; 3' TTTTT single-stranded linker to array surface; dsDNA, one strand shown
The full ranking holds about 39,000 sequences; the median of “fluorescence intensity (a.u.)” is about 4,300, and the highest 2% start at about 39,000. This is one part of a sample in which the highest values are shown more often than they occur.
READOUT_KIND: binding signal

ENTRY_SEQUENCE	TARGET	READOUT_KIND	ASSAY_VALUE
TGACACCGTCGCCACCTCGCCACCCATCCATTTCCATTGCCGGAGTCACCTAGTGCAG	OsSMF1 (Oryza sativa, UniProt Q6ZLB0 1-436)	binding signal	3650 fluorescence intensity (a.u.)

For record `GCCAGCTGCCACGTGGGACAAAATCGGGGTCAAAACCACCCGGAGTCACCTAGTGCAG` the listed binding signal is 12700 fluorescence intensity (a.u.)

Summary for this sequence, `CACAACCACAAGGTTGTCATTACCTCTATCATCGGTGTAACGGAGTCACCTAGTGCAG` : binding signal is 3380 fluorescence intensity (a.u.)

Quick note, binding signal for `GATTAATTGATTTATTTCTTTCTGCTTTACCCGGTCGCCACGGAGTCACCTAGTGCAG` landed at 19200 fluorescence intensity (a.u.)

Entry under test: `GGATTAATTAGTCTCAAAAGATTCGTCTCGCGGTTTCCAGCGGAGTCACCTAGTGCAG` . Its binding signal was 29400 fluorescence intensity (a.u.)

Measured binding signal of `TCACCCTGTCCTCGTCACGTCCCATTTTACATCCACCACCCGGAGTCACCTAGTGCAG` : 6570 fluorescence intensity (a.u.)
